System: SNB-19 CNS
ASSAY_OVERVIEW: NCI tumour cell line growth inhibition, 48 h
RECORDED_METRIC: GI50

compound=Cn1cc(-c2ccc3nnc(Sc4ccc5ncccc5c4)n3n2)cn1 assay_result="47.3 µM"
compound=COc1ccc2[nH]c(O)c(/C=c3/cc4c(c(-c5ccc(F)c(OC)c5)n3)=Nc3ccccc3-4)c2c1 assay_result="2.85 µM"
compound=CN(C)c1nc2ccccc2c2c1c1c(n2Cc2ccccc2)-c2ccccc2C1=O assay_result="> 100 µM"
compound="C=C1CCC2(C#N)[C@H]3[C@H](CC[C@@H]2C)[C@@H](C)C[C@@H](CC(C)(C)NC(=O)CN2CCC2=O)[C@H]13 (some centres undefined)" assay_result="9.58 µM"

---

Tested on: CCRF-CEM leukemia
ASSAY_OVERVIEW: NCI tumour cell line growth inhibition, 48 h
Where a SMILES comes first, the peptide text is derived from it. [ ]: non-standard residue; d: D form. The star is where a group is joined. Bn2Val = CC(C)[C@@H](C(=O)*)N(Cc1ccccc1)Cc1ccccc1; NH(4-Cl-benzyl) = Clc1ccc(CN*)cc1; NMeV = CN[C@H](C(=O)O)C(C)C; dNMeA = CN[C@H](C)C(=O)O
Measured TGI by item
RECORDED_METRIC: TGI

compound=CC(=O)Nc1ccc(OC/C(N)=N/NC(=O)c2ccncc2)cc1 recorded_metric=TGI assay_result="> 100 µM"
compound=CC(C)=CCNc1nc(Cl)nc2nc[nH]c12 recorded_metric=TGI assay_result="> 100 µM"
compound=Cn1cc(-c2ccc3nnc(Sc4ccc5ncccc5c4)n3n2)cn1 recorded_metric=TGI assay_result="> 100 µM"
compound="CN(C)/N=N/c1nc2c(c(=O)n(C)c(=O)n2C)n1CC(O)CO (stereo not drawn)" recorded_metric=TGI assay_result="> 100 µM"
compound=CN(C)c1nc2ccccc2c2c1c1c(n2Cc2ccccc2)-c2ccccc2C1=O recorded_metric=TGI assay_result="> 100 µM"
compound=Cc1nc(Nc2ccccn2)sc1C(=O)/C=C/c1ccc(Cl)cc1 recorded_metric=TGI assay_result="> 100 µM"
compound=CC(C)OP(=O)(OC(C)C)/C(N)=N/Nc1ccc([N+](=O)[O-])cc1 recorded_metric=TGI assay_result="> 100 µM"
compound="CCc1cc2c(c3c1CCCC3=O)CC1(Cc3ccc(C(=O)OC)cc3C1)C2 (stereo not drawn)" recorded_metric=TGI assay_result="91.4 µM"
compound="CC(C)[C@H](NC(=O)[C@H](C(C)C)N(Cc1ccccc1)Cc1ccccc1)C(=O)N(C)[C@H](C(=O)N1CCC[C@H]1C(=O)N(C)[C@H](C)C(=O)NCc1ccc(Cl)cc1)C(C)C (Bn2Val-V[NMeV]P[dNMeA]-{NH(4-Cl-benzyl)})" recorded_metric=TGI assay_result="7.43 µM"
compound="Cc1cc(O)c(C2=NN(c3ccc(S(N)(=O)=O)cc3)C(c3ccc(Cl)cc3)C2)c(C)c1Cl (stereo not drawn)" recorded_metric=TGI assay_result="13.5 µM"
compound="O=C1NC(=O)C(C(CC(=O)c2ccc(Cl)cc2)c2ccc(Cl)cc2)C(=O)N1 (stereo not drawn)" recorded_metric=TGI assay_result="> 100 µM"
compound=CC1(C)CC2(CC(C)(C)N1O)NC(=O)OC2=O recorded_metric=TGI assay_result="> 100 µM"
compound="C=C1C(=O)OC2CC(C)C3CC(O)OC(OCC)C3(C)CC12 (stereo not drawn)" recorded_metric=TGI assay_result="> 100 µM"
compound=C=C(C)[C@H]1C2=CC(C)=C(O2)[C@@H](O[C@@H]2c3oc(cc3C)[C@H](C(=C)C)[C@H]3C=C(CC[C@H]2C(=C)C)C(=O)O3)[C@H](C(=C)C)CCC2=C[C@H]1OC2=O recorded_metric=TGI assay_result="> 100 µM"
compound="CC(C)(C)C(=CS(=O)/N=C/c1ccccc1)C(C)(C)C (stereo not drawn)" recorded_metric=TGI assay_result="49.8 µM"
compound=Cc1cc(N=C2C=C(Br)C(=O)C(Br)=C2)cc(CN(CC(=O)O)CC(=O)O)c1O recorded_metric=TGI assay_result="> 100 µM"
compound=CC(C)(C)[Si](C)(C)OCc1cccc(OCCOc2cccc(CO[Si](C)(C)C(C)(C)C)c2[N+](=O)[O-])c1[N+](=O)[O-] recorded_metric=TGI assay_result="> 100 µM"
compound=Cn1cc(C2=C(c3cn(C)c4ccc(Cl)cc34)C(=O)NC2=O)c2ccccc21 recorded_metric=TGI assay_result="19.2 µM"

Cited source: PubChem BioAssay (NCI)
